- Tested on: RPMI-8226 leukemia
- Method Notes: NCI tumour cell line growth inhibition, 48 h
This section presents compounds with their documented TGI values.

# count of solved cases: 2
>>> recorded_measurement("O=c1c(Br)c(-c2ccccc2)[nH]c2ccccc12")
"> 100 µM"
>>> recorded_measurement("Cc1cc(C23OC4COC(C)(C)OC4C2OC(C)(C)O3)nc2ccccc12 (stereo not drawn)")
"> 100 µM"

Now for the compound whose TGI we want.
### Prompt Return reported TGI. Input compound: CC[C@H](Nc1cc(C)nc(N)n1)c1nc2cccc(NCc3ccc(C(=O)NO)cc3)c2c(=O)n1-c1ccccc1
### Response 7.4 µM
